Target: human orexin-1 receptor (Homo sapiens (Human), UniProt O43613)
Sequence (O43613 whole entry): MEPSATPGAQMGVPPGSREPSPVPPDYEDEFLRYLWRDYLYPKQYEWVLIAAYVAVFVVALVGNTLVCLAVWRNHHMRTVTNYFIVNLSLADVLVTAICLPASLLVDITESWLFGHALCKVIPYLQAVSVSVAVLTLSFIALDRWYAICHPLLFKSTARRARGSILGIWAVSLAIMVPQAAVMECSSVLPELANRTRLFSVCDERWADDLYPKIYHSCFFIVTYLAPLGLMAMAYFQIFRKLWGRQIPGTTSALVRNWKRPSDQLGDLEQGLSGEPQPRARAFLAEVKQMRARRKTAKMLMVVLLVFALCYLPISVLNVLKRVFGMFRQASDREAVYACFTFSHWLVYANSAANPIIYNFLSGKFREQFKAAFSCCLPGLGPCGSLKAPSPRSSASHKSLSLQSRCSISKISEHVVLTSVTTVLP
Assay: In vitro assay: intracellular calcium measurements (FLIPR), antagonistic activity
Format: cell-based
Conditions: CHO cells, 3 nM orexin-A, compound incubation 120 min; marked values are geometric means of n = 2-6; read-out: IC50 OX1
Procedure: In Vitro Assay: Intracellular Calcium Measurements: […] Fluorescence is measured for each well at 1 second intervals, and the height of each fluorescence peak is compared to the height of the fluorescence peak induced by 3 nM orexin-A with vehicle in place of antagonist. […] The calculated IC50 values may fluctuate depending on the daily cellular assay performance. […]
endpoint: IC50
Reply with the number and its unit after it.

Completed entries (count: 5):
• COc1cccc(F)c1[C@@H]1C[C@H](Cl)C(=O)N1Cc1ccc(OC(F)(F)F)cc1 (racemic) = 0.396 µM
• COc1cccc(OC)c1C1CC(C)C(=O)N1Cc1ccc2[nH]ccc2c1 (centres unmarked) = 0.81 µM
• COc1cccc(OC)c1C1CC(C)C(=O)N1Cc1ccc2ccccc2c1 (centres unmarked) = 0.027 µM
• COc1cccc(OC)c1C1CCCC(=O)N1Cc1csc(-c2ccccc2)n1 (centres unmarked) = 0.028 µM
• CC(C)Oc1cccc(F)c1[C@@H]1C[C@H](Cl)C(=O)N1Cc1ccc(OC(F)(F)F)cc1 (racemic) = 0.323 µM

Reported human orexin-1 receptor (Homo sapiens (Human), UniProt O43613) IC50 for item Cc1nc(-c2cccc(CN3C(=O)CCCC3c3ccccc3-c3ccccc3)c2)cs1 (centres unmarked) was 0.275 µM

Reported human orexin-1 receptor (Homo sapiens (Human), UniProt O43613) IC50 for item COc1ccnc(OC)c1C1CC(C)C(=O)N1Cc1cccc(-c2nc(Cl)cs2)c1 (centres unmarked) was 0.034 µM

Reported human orexin-1 receptor (Homo sapiens (Human), UniProt O43613) IC50 for item COc1cncc(OC)c1C1CCCC(=O)N1Cc1cccc(-c2ccccc2)c1 (centres unmarked) was 0.045 µM

Reported human orexin-1 receptor (Homo sapiens (Human), UniProt O43613) IC50 for item COc1cccc(OC)c1C1CCCC(=O)N1Cc1cc(-c2ccccn2)ccc1Cl (centres unmarked) was 0.169 µM

Reported human orexin-1 receptor (Homo sapiens (Human), UniProt O43613) IC50 for item COc1cccc(OC)c1C1CCCC(=O)N1Cc1ccc2nc(C)sc2c1 (centres unmarked) was 0.187 µM

Reported human orexin-1 receptor (Homo sapiens (Human), UniProt O43613) IC50 for item COc1cccc(OC)c1C1CCC(=O)N1Cc1cccc(-c2nccs2)c1 (centres unmarked) was 0.023 µM

Reported human orexin-1 receptor (Homo sapiens (Human), UniProt O43613) IC50 for item O=C1CCC(c2ccccc2-c2ccccc2)N1Cc1ccc(OC(F)(F)F)cc1 (centres unmarked) was 0.922 µM

Reported human orexin-1 receptor (Homo sapiens (Human), UniProt O43613) IC50 for item COc1cccc(Cl)c1[C@@H]1C[C@H](F)C(=O)N1Cc1ccc(OC(F)(F)F)cc1 (racemic) was 1.38 µM

Reported human orexin-1 receptor (Homo sapiens (Human), UniProt O43613) IC50 for item CCOc1cc(F)ccc1[C@@H]1C[C@@H](Cl)C(=O)N1Cc1ccc(OC(F)(F)F)cc1 (racemic) was 3.34 µM

* * *

# maps each entry to its IC50
target: human orexin-2 receptor (Homo sapiens (Human), UniProt O43614); experiment: In vitro assay: intracellular calcium measurements (FLIPR), antagonistic activity; assay type: cell-based; details: CHO cells, 3 nM orexin-A, compound incubation 120 min; marked values are geometric means of n = 2-6; read-out: IC50 OX2
Sequence (O43614 whole entry): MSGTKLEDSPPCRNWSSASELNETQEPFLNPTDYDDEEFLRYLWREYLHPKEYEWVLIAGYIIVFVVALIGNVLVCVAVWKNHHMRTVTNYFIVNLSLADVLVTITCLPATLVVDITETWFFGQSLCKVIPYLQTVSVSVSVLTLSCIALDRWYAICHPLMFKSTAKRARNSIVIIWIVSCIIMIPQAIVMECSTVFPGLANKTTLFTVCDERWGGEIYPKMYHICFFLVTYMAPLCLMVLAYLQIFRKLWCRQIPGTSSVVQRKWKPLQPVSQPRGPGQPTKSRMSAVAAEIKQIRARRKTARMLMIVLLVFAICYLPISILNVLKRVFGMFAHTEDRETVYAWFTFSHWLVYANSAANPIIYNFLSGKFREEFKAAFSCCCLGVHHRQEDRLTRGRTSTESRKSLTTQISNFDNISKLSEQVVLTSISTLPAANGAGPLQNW
Just the number in nM, nothing appended.

- COc1cccc(OC)c1C1CCCC(=O)N1Cc1ccnc(-n2cccn2)c1 (stereo not drawn): 80
- CC(C)Oc1cccc(F)c1C1CC(F)(F)C(=O)N1Cc1ccc(OC(F)(F)F)cc1 (stereo not drawn): 98
- O=C1CCC(c2ccccc2-c2ccccc2)N1Cc1ccc(OC(F)(F)F)cc1 (stereo not drawn): 585
- CCOc1cccc(Cl)c1[C@@H]1C[C@H](F)C(=O)N1Cc1ccc(OC(F)(F)F)cc1 (racemic): 31
- COc1ccc2c(c1C1CCCC(=O)N1Cc1cccc(-c3csc(C)n3)c1)OCCO2 (stereo not drawn): 13

For this molecule ( COc1cccc(OC)c1C1CCCCC(=O)N1Cc1cccc(-c2ccccn2)c1F (stereo not drawn) ), measured IC50 is 60
